# reported Conc. after 4-hour in HBSS; entries follow
- ASSAY_METHOD_TEXT: Stability in Hanks' balanced salt solution (HBSS)
- Type: physicochemical
- APPLIED_CONDITIONS: 37° C., relative to initial conc. in HBSS = 100.00
- Method: The stability of the NAP derivatives prepared by EXAMPLE 1 was measured with the system of human colon cancer cell, Caco-2 cell. […] The TEER of the Caco-2 cell monolayer was measured over 350 Ω×cm^2. The stability of the NAP derivatives in the Hanks' balanced salt solutions (HBSS) was measured by the concentration changes of NAP and the NAP derivatives incubated in the HBSS at 37° C. for 4 hours. […]
Returns: the value as a bare number; no unit string appended.

// solved cases for Conc. after 4-hour in HBSS follow
CC[C@H](C)[C@H](NC(=O)[C@H](CO)NC(=O)[C@@H](NC(=O)[C@@H]1CCCN1C(=O)[C@H](C)NC(=O)[C@H](CC(N)=O)NC(=O)OCC1c2ccccc2-c2ccccc21)C(C)C)C(=O)N1CCC[C@H]1C(=O)N[C@@H](CCC(N)=O)C(=O)O [BMEC-NAP0706, Fmoc-NAPVSIPQ-OH] : 99.78
CCCCCCCCC(=O)N[C@@H](CC(N)=O)C(=O)N[C@@H](C)C(=O)N1CCC[C@H]1C(=O)N[C@H](C(=O)N[C@@H](CO)C(=O)N[C@H](C(=O)N1CCC[C@H]1C(=O)N[C@@H](CCC(N)=O)C(=O)O)[C@@H](C)CC)C(C)C [BMEC-NAP0107, C8H17CO-NAPVSIPQ-OH] : 98.74
CCCCCCCCOC(=O)N[C@@H](CC(N)=O)C(=O)N[C@@H](C)C(=O)N1CCC[C@H]1C(=O)N[C@H](C(=O)N[C@@H](CO)C(=O)N[C@H](C(=O)N1CCC[C@H]1C(=O)N[C@@H](CCC(N)=O)C(=O)O)[C@@H](C)CC)C(C)C [BMEC-NAP0405, nOct-OCO-NAPVSIPQ-OH] : 99.66

In: Write down Conc. after 4-hour in HBSS measured for item CC[C@H](C)[C@H](NC(=O)[C@H](CO)NC(=O)[C@@H](NC(=O)[C@@H]1CCCN1C(=O)[C@H](C)NC(=O)[C@@H](N)CC(N)=O)C(C)C)C(=O)N1CCC[C@H]1C(=O)N[C@@H](CCC(N)=O)C(=O)O [BMEC-NAP, H-NAPVSIPQ-OH, reference compound]
Out: 99.21
